Molecular target: Neuronal acetylcholine receptor subunit alpha-7 (Homo sapiens, UniProt P36544)
Sequence (P36544 whole entry): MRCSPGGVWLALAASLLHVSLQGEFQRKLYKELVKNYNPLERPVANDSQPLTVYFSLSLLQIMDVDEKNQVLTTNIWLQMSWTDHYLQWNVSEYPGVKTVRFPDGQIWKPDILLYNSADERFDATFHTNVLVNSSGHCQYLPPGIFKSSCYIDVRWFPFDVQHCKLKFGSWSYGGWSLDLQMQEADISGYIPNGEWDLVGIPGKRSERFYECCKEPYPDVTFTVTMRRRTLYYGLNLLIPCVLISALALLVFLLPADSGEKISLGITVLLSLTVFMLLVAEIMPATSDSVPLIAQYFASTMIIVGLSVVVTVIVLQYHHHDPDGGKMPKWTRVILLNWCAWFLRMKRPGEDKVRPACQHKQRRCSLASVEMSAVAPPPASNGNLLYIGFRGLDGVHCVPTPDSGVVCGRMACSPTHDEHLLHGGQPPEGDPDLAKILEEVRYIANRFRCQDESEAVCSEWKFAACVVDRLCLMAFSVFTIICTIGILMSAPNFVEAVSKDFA
Assay: Antagonist activity at human alpha7 nAChR expressed in Xenopus laevis oocytes assessed as inhibition of Ach-induced current at 100 uM measured at holding potential of -90 mV by two electrode voltage-clamp assay relative to control
Type: cell-based
Details: Oocyte, filed as antagonist

chemical.string	inhibition / %
c1ccc(CN2CCC3(CC2)NC(c2cccs2)=NO3)cc1	74.9
Fc1ccc(CN2CCC3(CC2)NC(C2CC2)=NO3)cc1	83.9
Fc1ccc(C2=NOC3(CCN(Cc4ccccc4)CC3)N2)cc1	78.3
c1ccc(CN2CCC3(CC2)NC(c2ccc(-c4cccs4)cc2)=NO3)cc1	71.1
Brc1ccc(C2=NOC3(CCN(Cc4ccccc4)CC3)N2)cn1	90.3
c1ccc(CN2CCC3(CC2)NC(c2ccccc2)=NO3)cc1	98.2
CN1CCC2(CC1)NC(c1ccc(Br)cc1)=NO2	97.4
